Assay: NCI Yeast Anticancer Drug Screen. Data for the mlh1 rad18 strain (AID 175)
Conditions: S. cerevisiae mlh1 rad18 strain growth inhibition; at 50.0 µM
About 79,000 compounds went through this panel and 15% of them were active in at least one assay; those are over-represented in the sample as a whole. Active and inactive are the calls of the source. No stated cut-off is given here; in the data, active means growth inhibition above about 70%; inactive means the rest.
Could you please pick one outcome from this set? active, inactive

Problem: Recorded call for [O-][N+]1=C2CCC/C(=N/O)C2(O)C2CCCCC21N1CCOCC1 (centres undefined) ?
Solution: inactive

Problem: Recorded call for CSC1=Nc2ccccc2SC(c2ccccc2)C1c1ccccc1 (centres undefined) ?
Solution: inactive

Problem: Recorded call for COC(=O)c1nnn(-c2cccc(C(F)(F)F)c2)c1C(=O)c1ccc(Cl)c(Cl)c1 ?
Solution: active

Problem: Recorded call for Cc1ccc(OC/C=C/c2cccc(C#N)c2)cc1 ?
Solution: inactive

----------
Assay: NCI Yeast Anticancer Drug Screen. Data for the cln2 rad14 strain (AID 165);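 further: 0% = growth equal to vehicle treated cultures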
Details: S. cerevisiae cln2 rad14 strain, at 50.0 µM (retest, dose inferred, filed as 5.0)
Protocol: Growth inhibition of yeast strains with defined genetic alterations is measured as a screen for potential anti-cancer activity. Selected strains with alterations in DNA damage repair or cell cycle control were exposed to compounds and growth inhibition was measured relative to vehicle treated controls. The strain used in this assay is cln2 rad14
The panel holds about 79,000 compounds, 15% with a hit somewhere; the sample as a whole holds those more often. Calls of active or inactive are those of the source. Rule as the data show it: active = growth inhibition above about 70%; inactive = the rest.
Could you please pick one outcome from this set? active, inactive

Problem: Recorded call for NNC(=O)c1ccccc1SSc1ccccc1C(=O)NN ?
Solution: active

Problem: Recorded call for O=C(c1ccccc1)c1[nH]c2ccccc2c(=O)c1-c1ccc([N+](=O)[O-])cc1 ?
Solution: active

Problem: Recorded call for CCNC(=S)NC1CCCCCCCCCCC1 ?
Solution: inactive

Problem: Recorded call for c1ccc(C2CC(c3ccc4ccccc4c3)=Nc3ccccc3S2)cc1 (stereo not given) ?
Solution: inactive

Problem: Recorded call for Cc1cc(CN(Cc2ccccc2)Cc2nc3ccccc3[nH]2)c(O)c(CN(Cc2nc3ccccc3[nH]2)Cc2nc3ccccc3[nH]2)c1 ?
Solution: inactive

Problem: Recorded call for COc1ccc(C(=O)C2Cc3c(ccc4ccccc34)OC2=O)cc1 (stereo not given) ?
Solution: inactive

Problem: Recorded call for N/C(=N\N=C/c1ccc(O)c(O)c1O)NO ?
Solution: inactive

Problem: Recorded call for O=S(=O)(c1ccc2c(c1)CCCN2)N1CCC[C@H]2CCCC[C@@H]21 ?
Solution: active

Problem: Recorded call for Cc1ccc(S(=O)(=O)N/N=c2\c(C)c(C3=NS(=O)(=O)c4cc(S(N)(=O)=O)c(Cl)cc4N3)oc3c(Cl)cc(Cl)cc23)cc1 ?
Solution: inactive

Problem: Recorded call for CS(=O)(=O)c1nnnn1-c1ccccc1 ?
Solution: active

----------
Exercise: for every item that follows, state its recorded growth inhibition.
Test: NCI Yeast Anticancer Drug Screen. Data for the mec2-1 strain (AID 157)
Conditions: S. cerevisiae mec2-1 strain, at 5.0 µM (retest, dose inferred, filed as 0.5), active compounds read high
Experimental: Growth inhibition of yeast strains with defined genetic alterations is measured as a screen for potential anti-cancer activity. Selected strains with alterations in DNA damage repair or cell cycle control were exposed to compounds and growth inhibition was measured relative to vehicle treated controls. The strain used in this assay is mec2-1
About 79,000 compounds went through this panel and 15% of them were active in at least one assay; those are over-represented in the sample as a whole.
Write down the numeric answer in % and omit the unit.

Problem: Value lookup for growth inhibition; key = CCCCN(c1ccccc1)c1ncnc2c1ncn2C
Solution: -3

Problem: Value lookup for growth inhibition; key = Cc1cc2c(cc1C)C(=O)OC2=O
Solution: -1

Problem: Value lookup for growth inhibition; key = COC(C(=O)O)c1ccccc1 (stereo unspecified)
Solution: -1

Problem: Value lookup for growth inhibition; key = C=CCOCCC=O
Solution: 3

Problem: Value lookup for growth inhibition; key = CCSc1c2ccccc2nc2c(OC)ccc(OC)c12
Solution: -3

Problem: Value lookup for growth inhibition; key = C=C1C(C2(C)C(OC(C)=O)CC(=O)OC(C)(COC(C)=O)C2CC(=O)OC)C(OC=O)C(OC(=O)C(O)C(C)CC)C2(C)C(c3ccoc3)CC(=O)C12O (stereo unspecified)
Solution: -5

----------
Assay: NCI Yeast Anticancer Drug Screen. Data for the sgs1 mgt1 strain (AID 161);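 further: 0% = growth of cultures given vehicle only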
Settings: S. cerevisiae sgs1 mgt1 strain, at 50.0 µM
Compounds without any hit were thinned out: in the full panel of roughly 79,000, 15% have a hit. The source made the active and inactive calls. Cut-off read from the data, not from the text of the source: active = growth inhibition above about 70%; inactive = the rest.
Could you please pick one outcome from this set? active, inactive

Problem: Recorded call for CCCCCCCCCCCC[n+]1cc2ccccc2cc1C ?
Solution: active

Problem: Recorded call for CC(C)=CC1C(COC(=O)CCl)C1(C)C (stereo unspecified) ?
Solution: inactive

Problem: Recorded call for CCOc1ccc2c(c1)[n+]([O-])c(-c1ccccc1)c(N)[n+]2[O-] ?
Solution: active

Problem: Recorded call for CSC(C=P(c1ccccc1)(c1ccccc1)c1ccccc1)=Nc1ccccc1 ?
Solution: active

Problem: Recorded call for CC(=O)CC(C)=O.CCN(CC)CC[C-]=O.[Pd+2] ?
Solution: active

Problem: Recorded call for O=c1ncccn1[C@@H]1O[C@H](CO)[C@H](O)C1O (stereo partly specified) ?
Solution: inactive

----------
Assay: NCI Yeast Anticancer Drug Screen. Data for the sgs1 mgt1 strain (AID 161);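 further: 0% = growth of cultures given vehicle only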
Conditions: S. cerevisiae sgs1 mgt1 strain, at 5.0 µM (retest, dose inferred, filed as 0.5), active compounds read high
Method: Growth inhibition of yeast strains with defined genetic alterations is measured as a screen for potential anti-cancer activity. Selected strains with alterations in DNA damage repair or cell cycle control were exposed to compounds and growth inhibition was measured relative to vehicle treated controls. The strain used in this assay is sgs1 mgt1
Compounds without any hit were thinned out: in the full panel of roughly 79,000, 15% have a hit.
Exercise: for every item that follows, state its recorded growth inhibition.
Write down the numeric answer in % and omit the unit.

Problem: Value lookup for growth inhibition; key = Oc1ccc2c(c1)Cc1ccccc1-2
Solution: 1

Problem: Value lookup for growth inhibition; key = O=C1CC(O)CC(=O)C1=C(O)CCCCCCCCCCc1ccccc1 (stereo not drawn)
Solution: 36

Problem: Value lookup for growth inhibition; key = CC1(c2ccccc2)OC1C(=O)N(c1ccccc1)c1ccccc1 (stereo not drawn)
Solution: 12

Problem: Value lookup for growth inhibition; key = CCCCCNC(=O)c1ccc(Cl)c(Cl)c1
Solution: 7

Problem: Value lookup for growth inhibition; key = N#CCCN(CCC#N)Cc1cc(-c2ccccc2)ccc1O
Solution: -2

Problem: Value lookup for growth inhibition; key = CCOC(=O)/C(C#N)=C/c1coc2cc(C)cc(C)c2c1=O
Solution: -3

Problem: Value lookup for growth inhibition; key = CC(/C=C1\C(=O)N(C)C(CC(C)C(Cl)(Cl)Cl)C(=O)N1C)C(Cl)(Cl)Cl (stereo not drawn)
Solution: 4

Problem: Value lookup for growth inhibition; key = CCN(CC)c1ccc(N=Nc2ccc(Br)cn2)c(O)c1
Solution: -3

Problem: Value lookup for growth inhibition; key = CC1C(c2ccc(Cl)cc2)c2cc3c(cc2OC1N1CCOCC1)OCO3 (stereo not drawn)
Solution: -24

Problem: Value lookup for growth inhibition; key = Cc1ccc(S(=O)(=O)NC2(C=O)CCC(C(C)(C)C)CC2)cc1 (stereo not drawn)
Solution: 25

Problem: Value lookup for growth inhibition; key = Cc1ccc(SC2=C(N(C)C)C(=O)c3ccccc3C2=O)cc1
Solution: -1

Problem: Value lookup for growth inhibition; key = CC1(C)CC(=N/O)/C(=N/O)C(=N\NC(N)=S)/C1
Solution: 1

Problem: Value lookup for growth inhibition; key = COC(=O)[C@]1(C)CCC[C@]2(C)c3ccc(C(C)C)cc3C(=O)C[C@@H]12
Solution: 1

Problem: Value lookup for growth inhibition; key = CSC(SC)(C(=O)O)c1cc(C)no1
Solution: -17

Problem: Value lookup for growth inhibition; key = COc1ccccc1/C=N/Nc1nnc(N/N=C/c2ccccc2OC)c2ccccc12
Solution: 10

Problem: Value lookup for growth inhibition; key = COc1cccc(C=O)c1O
Solution: 1

Problem: Value lookup for growth inhibition; key = C1CCC(C2CCC(N3CCCCC3)CC2)CC1 (stereo not drawn)
Solution: 58

Problem: Value lookup for growth inhibition; key = Cc1ccc(O)c(N=Nc2ccc(Cl)cc2)c1
Solution: -3

Problem: Value lookup for growth inhibition; key = CC(/C=C/NNC1=NC(c2ccccc2)C(c2ccccc2)=NN1)Sc1ccccc1N (stereo not drawn)
Solution: 31

Problem: Value lookup for growth inhibition; key = CNCCCNc1c2cc(OC)ccc2nc2cccc([N+](=O)[O-])c12
Solution: 49

Problem: Value lookup for growth inhibition; key = O=C1OC(=O)C2C(c3ccccc3)=C(c3ccccc3)C(c3ccccc3)=C(c3ccccc3)C12 (stereo not drawn)
Solution: 33

Problem: Value lookup for growth inhibition; key = Cc1cccc(CC(C)(C)C)c1NC(=O)C(=O)C(C(=O)c1ccc2ccccc2c1)C1OC(=O)c2ccccc21 (stereo not drawn)
Solution: 9

Problem: Value lookup for growth inhibition; key = Cc1ccc(SCc2nc3ccccc3c(C)[n+]2[O-])cc1
Solution: -7

Data origin, for the record: PubChem BioAssay (NCI)
